Values from patent US7074789B2

molecular target: AKT (Homo sapiens); construct: Kinases are expressed as either kinase domains or full length constructs; made in house; assay: Kinase inhibition assay (33P transfer), AKT; type: biochemical; settings: Table 2, kinase inhibition class; read-out: AKT3-1
Sequence (Q9Y243 whole entry, the tested form may be a part): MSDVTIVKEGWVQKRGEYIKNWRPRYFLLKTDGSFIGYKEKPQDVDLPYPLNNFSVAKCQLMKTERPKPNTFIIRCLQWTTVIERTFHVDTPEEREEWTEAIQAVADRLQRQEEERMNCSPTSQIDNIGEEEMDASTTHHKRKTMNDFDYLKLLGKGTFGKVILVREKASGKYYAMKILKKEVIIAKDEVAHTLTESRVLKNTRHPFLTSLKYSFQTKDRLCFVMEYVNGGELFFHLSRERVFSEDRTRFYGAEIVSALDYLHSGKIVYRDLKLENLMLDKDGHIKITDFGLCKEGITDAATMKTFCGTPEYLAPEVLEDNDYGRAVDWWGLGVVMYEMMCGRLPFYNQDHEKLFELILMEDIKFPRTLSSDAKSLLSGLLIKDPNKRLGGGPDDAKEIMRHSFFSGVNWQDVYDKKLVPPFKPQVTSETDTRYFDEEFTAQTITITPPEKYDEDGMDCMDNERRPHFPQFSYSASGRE
pIC50: −log10 of the molar value.
measurement.type: pIC50

Answered cases to consult:
compound: COc1cc(Nc2ncnc(NC(=O)NCCc3ccccc3)n2)cc(OC)c1OC
pIC50: < 4.97
//
compound: CCN(CC)CCOc1cc(Nc2ncnc(-n3c(N)nc4ccccc43)n2)ccc1OC
pIC50: < 5.00
//
compound: COc1cc(Nc2ncnc(-n3nc(-c4ccccc4)cc3N)n2)cc(OC)c1OC
pIC50: < 4.97

Now for a further molecule.
Query :: Please look up its pIC50: COc1ccc(-c2cc(Nc3ncnc(Nc4ccc(CC(N)=O)cc4)n3)[nH]n2)cc1
Result :: < 4.97
